Test system: Adrenomedullin (Homo sapiens)
PROTOCOL_NOTES: Affinity against human adrenomedullin
Lab note: compare Affinity with 20%, writing yes (1) if less and no (0) if equal or more.

Known results for compounds:
- CPD_SMILES: "c1ccc(Nn2c(CCCCCCCCc3nnc(COc4ccccc4)n3Nc3ccccc3)nnc2COc2ccccc2)cc1"
  ASSIGNED_CATEGORY: "no (0)"
- CPD_SMILES: "c1ccc(Cn2c(CCCCCCc3nnc(COc4ccccc4)n3Cc3ccccc3)nnc2COc2ccccc2)cc1"
  ASSIGNED_CATEGORY: "yes (1)"
- CPD_SMILES: "c1ccc(OCc2nnc(CCCCCCCCc3nnc(COc4ccccc4)o3)o2)cc1"
  ASSIGNED_CATEGORY: "yes (1)"
- CPD_SMILES: "O=C(CCCCCC(=O)NNC(=O)COc1ccccc1)NNC(=O)COc1ccccc1"
  ASSIGNED_CATEGORY: "yes (1)"
- CPD_SMILES: "O=C(CCCCCCCC(=O)NNC(=O)COc1ccccc1)NNC(=O)COc1ccccc1"
  ASSIGNED_CATEGORY: "yes (1)"

For this compound, is Affinity lower than 20%? O=C(CCCCC(=O)NNC(=O)COc1ccccc1)NNC(=O)COc1ccccc1
yes (1)

For this compound, is Affinity lower than 20%? c1ccc(Cn2c(CCCCc3nnc(COc4ccccc4)n3Cc3ccccc3)nnc2COc2ccccc2)cc1
yes (1)

For this compound, is Affinity lower than 20%? O=C(CCCCCCCCC(=O)NNC(=O)COc1ccccc1)NNC(=O)COc1ccccc1
no (0)

For this compound, is Affinity lower than 20%? Nn1c(CCCCCCCCc2nnc(COc3ccc(Cl)cc3Cl)n2N)nnc1COc1ccc(Cl)cc1Cl
no (0)
